Would you kindly list EC50 for each of these compounds?
test system: HCV replicon (genotype 1b, Con1 isolate) in human hepatoma cell line Huh7; assay: HCV replicon assay (antiviral activity, anti-HCV core ELISA readout); assay type: cell-based; settings: Hepatitis C virus, Huh-7, 72 h, read-out: EC50, activity against HCV genotype 1b
Answers are plain numbers, in nM.

Some solved cases for reference:
INPUT: Could you tell me which EC50 is on file for Nc1ccn([C@@H]2O[C@H](COP(=O)(N[C@H]3CCOC3=O)Oc3ccccc3)[C@@H](O)C2(F)F)c(=O)n1 (stereo partly drawn) ?
OUTPUT: 19.8

INPUT: Cool, now CC(=O)O[C@@H]1[C@@H](COP(=O)(N[C@H]2CCOC2=O)Oc2ccccc2)O[C@@H](n2ccc(N)nc2=O)C1(F)F (stereo partly drawn)
OUTPUT: 27

--- query ---
INPUT: Consider the compound CN1CCCC(NP(=O)(OC[C@H]2O[C@@H](n3ccc(NC(=O)OCc4ccccc4)nc3=O)C(F)(F)[C@@H]2OC(=O)OCc2ccccc2)Oc2ccccc2)C1=O (stereo partly drawn) and give its measured EC50.
OUTPUT: 552
